Test system: radish (Raphanus sativus) sprouts
experiment description: Phytotoxicity test on radish sprouts
Type: in vivo
experimental setup: 125 mg/L, compared with untreated control
Reported Reduction in Sprout Mass values are given for each entry in this list.
Lab book: enter the figure in %, no units written.

compound	reported
C[N+](C)(C)CCCl.O=C([O-])c1ccncc1 [[CC][IsoNic]]	15.70
C[N+](C)(C)CCCl.O=C([O-])c1cccnc1 [[CC][Nic]]	8.20
C[N+](C)(C)CCCl.O=C([O-])c1cc(Cl)cc(Cl)c1O [[CC][3,5-ClSal]]	27.51

Task: I am curious: what Reduction in Sprout Mass value has been reported for "O=C(O)c1ccc(Cl)cc1O" ?
Result: 46.55

Task: I am curious: what Reduction in Sprout Mass value has been reported for C[N+](C)(C)CCCl.O=C([O-])c1ccccc1O [[CC][Sal], chlormequat salicylate] ?
Result: 8.79

Task: I am curious: what Reduction in Sprout Mass value has been reported for C[N+](C)(C)CCCl.O=C([O-])c1cccc(Cl)c1O [[CC][3-ClSal]] ?
Result: 15.97

----------
Reported solubility values are given for each entry in this list.
experiment description: Solubility tests in representative solvents (Vogel protocol)
experimental setup: 25 °C, water, thermodynamic from solid, Solubility in Water, Snyder polarity index 9.0

compound	solubility
C[N+](C)(C)CCCl.O=C([O-])c1ccccc1O [[CC][Sal], chlormequat salicylate]	> 100 mg/mL

In the following, a different compound is considered.
Task: I am curious: what solubility value has been reported for C[N+](C)(C)CCCl [[CC][Cl], Chlormequat chloride, reference compound] ?
Result: > 100 mg/mL

----------
Reported Reduction in Sprout Mass values are given for each entry in this list.
Test system: radish (Raphanus sativus) sprouts
experiment description: Phytotoxicity test on radish sprouts
Assay type: in vivo
experimental setup: 250 mg/L, compared with untreated control
Lab book: enter the figure in %, no units written.

compound	recorded metric	unit tag	reported
O=C(O)c1cccc(Cl)c1O [3-chlorosalicylic acid]	Reduction in Sprout Mass	%	72.65
C[N+](C)(C)CCCl.O=C([O-])c1cc(Cl)nc(Cl)c1 [[CC][Ina]]	Reduction in Sprout Mass	%	28.21
C[N+](C)(C)CCCl.O=C([O-])c1cc(Cl)ccc1O [[CC][5-ClSal]]	Reduction in Sprout Mass	%	30.15
O=C(O)c1ccc(Cl)cc1O [4-chlorosalicylic acid]	Reduction in Sprout Mass	%	68.45

In the following, a different compound is considered.
Task: I am curious: what Reduction in Sprout Mass value has been reported for O=C(O)c1cc(Cl)ccc1O [5-chlorosalicylic acid] ?
Result: 59.87

----------
experiment description: Solubility tests in representative solvents (Vogel protocol)
experimental setup: 25 °C, organic solvent or mixture, thermodynamic from solid, Solubility in Acetone, Snyder polarity index 5.1
Reported solubility values are given for each entry in this list.

compound	solubility
C[N+](C)(C)CCCl [[CC][Cl], Chlormequat chloride, reference compound]	< 33.3 mg/mL

In the following, a different compound is considered.
Task: I am curious: what solubility value has been reported for C[N+](C)(C)CCCl.O=C([O-])c1ccccc1O [[CC][Sal], chlormequat salicylate] ?
Result: < 33.3 mg/mL

----------
experiment description: Solubility tests in representative solvents (Vogel protocol)
experimental setup: 25 °C, organic solvent or mixture, thermodynamic from solid, Solubility in Isopropanol, Snyder polarity index 4.3
recorded metric: solubility

compound	recorded metric	reported
C[N+](C)(C)CCCl.O=C([O-])c1ccccc1O [[CC][Sal], chlormequat salicylate]	solubility	33.3 to 100 mg/mL

In the following, a different compound is considered.
Task: I am curious: what solubility value has been reported for C[N+](C)(C)CCCl [[CC][Cl], Chlormequat chloride, reference compound] ?
Result: < 33.3 mg/mL

Where do these numbers come from? They come from paper PMC12610573.
